Target: Hexose transporter 1 (Plasmodium falciparum)
Assay: ST_JUDE_LEISH: Cytotoxicity at 2uM final concentration against transgenic Leishmania Mexicana promastigotes LmPfHT that are glucose transport deficient and complemented with the Plasmodium falciparum hexose transporter. Activity is measured by DNA content using SYBR green in vitro
Assay type: functional
ATTRIBUTE MEASURED: inhibition (%)

>>> measured_value("COc1ccc(Cc2cccc(C(C(=O)NCc3cc(Cl)cc(Cl)c3)N3CCN(C)CC3)c2)cc1 (centres undefined)")
-1.26
>>> measured_value("COCCNCc1cccc(-c2ccc3c(Nc4ccc(Oc5cccnc5)cc4)ccnc3c2)c1")
2.56
>>> measured_value("O=C(Nc1ccc2c(c1)CCC2)c1cccc(CN2CCCN(Cc3cccc(O)c3)CC2)c1")
-2.6
>>> measured_value("CNC(=O)C1Cc2c([nH]c3cc(Cl)ccc23)C2(CCN(CCc3ccccc3)CC2)N1 (centres undefined)")
1.39
>>> measured_value("CC(CCc1ccccc1)NCC(O)c1ccc2c3c(cccc13)S(=O)(=O)N2C (centres undefined)")
5.04
>>> measured_value("COc1ccc(NC(=O)/C=C/c2ccccc2Cl)cc1OCCN1CCC(O)(c2ccc(Cl)c(C(F)(F)F)c2)CC1")
8.47
>>> measured_value("Cc1cc(=NN=Cc2ccccc2)c2cc(F)ccc2[nH]1")
0.79
>>> measured_value("COc1cc(Cc2cnc(N)nc2N)cc(OCCCS(=O)(=O)O)c1OC")
2.33
>>> measured_value("Fc1ccc(Nc2nnc(CNC3CCN(Cc4ccc(Cl)c(Cl)c4)CC3)[nH]2)cc1")
0.21
>>> measured_value("O=c1cc(N2CCCNCC2)c(Cl)nn1Cc1ccc(NS(=O)(=O)c2ccc(Oc3ccccc3)cc2)cc1")
8
>>> measured_value("CCCN(CC1CC1)c1ncc(-c2cccc(CNCc3ccccc3O)c2)cn1")
-2.3
>>> measured_value("Cc1ccc(N2CCc3c(-c4cc5cccnc5nc4C)cc(C)nc32)c(Cl)c1")
6.18
>>> measured_value("CCOc1cc(C)ccc1N1CCN(CCN2CCC(NC(=O)c3ccc(-c4ccc(C#N)cc4)cc3)CC2)CC1")
1.91
>>> measured_value("CCCN(CCC)C(=O)c1cc(-c2cccc(C)c2)nc2ccccc12")
0.69
>>> measured_value("COc1cc2c(cc1COc1ccccc1)CCN1Cc3cc(OC)c(OC)cc3CC21 (centres undefined)")
0.8
>>> measured_value("CCOC(=O)c1ccc(NC(=O)Nc2ccc(-c3ccc(-c4nc5cccc(C)c5[nH]4)s3)cc2)cc1")
0.41
>>> measured_value("C=CCOc1ccccc1CNCC(O)c1cc(Br)cs1 (centres undefined)")
2.37
>>> measured_value("CN(C)CCN(C)Cc1ccc(-c2ccc3c(Nc4ccc(Oc5ccccc5)cc4)ccnc3c2)o1")
2.26
>>> measured_value("CN1CCCC1CCNC(=O)[C@H](CC1CCCCC1)NC(=O)c1ccc(O)c(-c2ccc(Cl)c(Cl)c2)c1 (some centres undefined)")
10.3
>>> measured_value("O=S(=O)(c1ccc(Cl)cc1Cl)N1CCCCC(c2ccc(C(F)(F)F)cc2)=N1")
0.43
>>> measured_value("CCNc1cc(C(=O)N[C@@H](Cc2ccccc2)[C@H](O)CNC(C)(C)CCCC(C)C)cc(N2CCCC2=O)c1")
1.71
>>> measured_value("Cc1cccc2nc(-c3ccc(-c4ccc(CN5CCN(c6cnccn6)CC5)cc4)s3)[nH]c12")
9.41
>>> measured_value("O=C(N[C@H]1CCN(Cc2ccc(OCCCN3CCCCC3)cc2)C1)c1cc(Cl)cc(Cl)c1")
7.28
>>> measured_value("CC(C)n1cc(CN2CCCC(C(=O)Nc3cccc(-c4cc5ccccc5[nH]4)c3)C2)cn1 (centres undefined)")
-0.11
>>> measured_value("CN1CCC[C@H]1COc1ccc(CN2CC[C@H](NC(=O)c3ccc(Cl)c(Cl)c3)C2)cc1Cl")
0.86
>>> measured_value("CC(C)(C)CC(C)(C)c1ccc(O)c(CNC2CCCCC2)c1")
2.09
>>> measured_value("CNC(=O)c1ccc(/C=C/C(=O)N2CCc3ccc(-c4ccccc4)cc3C2c2cccc(C(F)(F)F)c2)cc1 (centres undefined)")
-0.01
>>> measured_value("CC(C)C[C@@H](C(=O)Nc1ccc(Cc2ccc(NC(=O)[C@H](CC(C)C)N(C)C(=O)OC(C)(C)C)cc2)cc1)N(C)C(=O)OC(C)(C)C")
-1.12
>>> measured_value("CCC(C)(C)C1CCc2nc(N)nc(N)c2C1 (centres undefined)")
71.9
>>> measured_value("CN1CCN(c2ncnc3ccc(NC(=O)Nc4ccc(Cl)c(Cl)c4)cc23)CC1")
2.35
>>> measured_value("O=C(Nc1ccc(F)cc1)c1nc2ccccc2nc1Cl")
3.68
>>> measured_value("Cc1nc(Nc2ccncc2)cc(-c2ccncc2)n1")
4.18
>>> measured_value("CC(C)Nc1nc(NCCc2c[nH]cn2)nc(NCc2ccc(Cl)c(Cl)c2)n1")
0.13
>>> measured_value("O=C(NC1CC1)c1cnc(N2CCC(Oc3ccc(Cl)cc3)CC2)c(Cl)c1")
2.7
>>> measured_value("Cc1ccccc1C1CCN(C2CCC(NC(=O)/C=C/c3cccc(Cl)c3)CC2)CC1 (centres undefined)")
-2.1
>>> measured_value("Cc1ccc(NC(=O)Nc2ccc(Cl)c(C(F)(F)F)c2)cc1-c1ccc(C(=O)Nc2ccncc2)cc1")
2.27
>>> measured_value("CN(C)c1nc2cc(-n3cnc4cc(-c5ccc(Cl)cc5)sc4c3=O)ccc2n1CCCN1CCCCC1")
10.8
>>> measured_value("CCOc1ccc(-c2nonc2NC(=O)c2ccccc2F)cc1OCC")
1
>>> measured_value("Cc1cccc(-c2c(C)nc(N)nc2N)c1")
2.06

---

Molecular target: Solute carrier family 2, facilitated glucose transporter member 1 (Homo sapiens) (UniProt P11166)
Sequence (P11166 whole entry): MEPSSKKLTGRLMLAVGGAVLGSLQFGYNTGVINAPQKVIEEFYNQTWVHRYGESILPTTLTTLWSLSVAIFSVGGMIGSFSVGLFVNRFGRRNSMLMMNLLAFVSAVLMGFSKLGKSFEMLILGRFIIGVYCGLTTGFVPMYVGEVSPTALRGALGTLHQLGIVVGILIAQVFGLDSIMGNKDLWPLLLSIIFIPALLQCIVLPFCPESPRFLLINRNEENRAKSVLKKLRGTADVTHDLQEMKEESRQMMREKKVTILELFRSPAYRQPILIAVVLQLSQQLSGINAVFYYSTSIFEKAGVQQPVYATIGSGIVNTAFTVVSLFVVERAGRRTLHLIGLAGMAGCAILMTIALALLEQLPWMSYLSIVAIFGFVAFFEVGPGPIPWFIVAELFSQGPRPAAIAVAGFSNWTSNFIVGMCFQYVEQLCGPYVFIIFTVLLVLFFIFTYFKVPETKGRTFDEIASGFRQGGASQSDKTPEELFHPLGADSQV
Experiment: ST_JUDE_LEISH: Cytotoxicity at 2uM final concentration against transgenic Leishmania Mexicana promastigotes LmGLUT1 that are glucose transport deficient and complemented with the human glucose transporter GLUT1. Activity is measured by DNA content using SYBR green in vitro
Format: functional
ATTRIBUTE MEASURED: inhibition (%)

>>> measured_value("c1ccc2c(CNc3ccnc(NCc4cccc5ccccc45)n3)cccc2c1")
9.83
>>> measured_value("CN1CCN(CC(=O)Nc2ccc(-c3cccc(-c4nc5cc(F)ccc5[nH]4)c3)cc2)CC1")
-0.65
>>> measured_value("CCOC(=O)CCCc1cc(NC2CCN(C)CC2)nc(Nc2ccc(C)cc2)n1")
-2.45
>>> measured_value("Cc1[nH]c(C)c(-c2ccc(-c3ccc(Cl)cc3)nc2)c(=O)c1Cl")
0.56
>>> measured_value("COc1ccc2nccc(NCC3(O)CCN(CC(O)c4ccc5c(c4)NC(=O)CS5)CC3)c2n1 (stereo not given)")
3.39
>>> measured_value("COc1ccc(N2C(N)=NC(N)=NC2(C)C)cc1")
1.65
>>> measured_value("O=C(NC1CCCCCC1)C1CCCN(C(=O)c2ccc(O)c(-c3ccc(Cl)c(Cl)c3)c2)C1 (stereo not given)")
3.16
>>> measured_value("COc1ccc(CNCc2ccc(-c3ccc(-c4nc5cc(C(F)(F)F)ccc5[nH]4)s3)cc2)cc1")
3.27
>>> measured_value("N#CN1CC[C@@H](OC(=O)N[C@@H]2C[C@H]2c2ccccc2)C1")
8.37
>>> measured_value("Cc1cc(NC(=O)NCCN2CCC(NS(=O)(=O)c3ccccc3F)CC2)c2ccccc2n1")
1.57
>>> measured_value("CN1CCN(c2ccc(-c3cc(-c4ccncc4)c(-c4ccc(Cl)c(O)c4)o3)cc2)CC1")
-0.86
>>> measured_value("Nc1nc(N)c2c(Cl)c(N3CCOCC3)ccc2n1")
36.1
>>> measured_value("CC(C)(CN)c1cc(-c2ccc(Cl)c(O)c2)c(-c2ccncc2)o1")
0.01
>>> measured_value("Cc1ccc(CN2CCN(Cc3cccc(NC(=O)c4ccc5ccccc5c4)c3)CC2)cc1C")
1.24
>>> measured_value("COc1c(C2CCN(CCCCNC(=O)c3cc(-c4ccc(Cl)cc4)oc3C)CC2)ccc2c1CCCC2")
9.04
>>> measured_value("Cc1nc(N)nc(N)c1OCCCOc1cccc(Cl)c1Cl")
65.6
>>> measured_value("COc1cc(-c2cc(-c3ccc(OCCN(C)C)cc3)[nH]c2-c2ccncc2)ccc1Cl")
0.75
>>> measured_value("Cc1cc(N[C@@H](CC(C)C)C(=O)NCc2cccc(F)c2)nc(NCC2CCCCC2)n1")
5.8
>>> measured_value("Cc1cc(C)nc(-n2[nH]c(C)c(Cc3ccc(C(C)(C)C)cc3)c2=O)n1")
4.87
>>> measured_value("CS(=O)(=O)c1ccc(CNCc2ccc(-c3ccc(-c4nc5cc(C(F)(F)F)ccc5[nH]4)cc3)cc2)cc1")
2.96

---

Target: Glucose transporter (Leishmania mexicana)
Experiment: ST_JUDE_LEISH: Cytotoxicity at 2uM final concentration against transgenic Leishmania Mexicana promastigotes LmGT2 that are glucose transport deficient and complemented with the L. Mexicana glucose transporter 2. Activity is measured by DNA content using SYBR green in vitro
Assay type: functional
ATTRIBUTE MEASURED: inhibition

>>> measured_value("CCN(CC)Cc1cc(Nc2c3ccc(Cl)cc3nc3cccc(OC)c23)ccc1O")
"5%"
>>> measured_value("Cc1cc(Nc2ccc(C)c(Cl)c2)n2ncnc2n1")
"-4.9%"
>>> measured_value("CCc1sc(CN(CCCNc2cc(=O)c3ccccc3[nH]2)Cc2sc(CC)c(Br)c2-c2ccsc2)c(-c2ccsc2)c1Br")
"5.33%"
>>> measured_value("COc1cccc(-c2csc(C(=O)NC3CCCCN(Cc4ccc(C(C)(C)C)cc4)C3)c2)c1 (stereo not given)")
"5.14%"
>>> measured_value("COc1ccc(CON2C(=N)N=C(N)NC2(C)C)cc1OC")
"-0.13%"
>>> measured_value("CCNc1cc(C(=O)NC(Cc2ccccc2)C(O)CNC2CCSCC2)cc(N2CCCC2=O)c1 (stereo not given)")
"4%"
>>> measured_value("COc1cc(F)c2ncc(C#N)c(CCN3CCC(NCc4ccc5c(c4)OCCO5)CC3)c2c1")
"93.9%"
>>> measured_value("N#CCCN1CCN(Cc2cccc(-c3ccc(-c4nc5cc(C(F)(F)F)ccc5[nH]4)cc3)c2)CC1")
"2.78%"
>>> measured_value("O=C(Nc1ccccc1)N(Cc1ccc(-c2ccc(CNC3CCCC3)cc2)cc1)C1CCN(Cc2ccccc2)CC1")
"2.32%"
>>> measured_value("COc1ccc(Oc2ccc(-c3c(O)cc(C)nc3C)cc2)cc1")
"1.27%"
